molecular target: T1, HLA-A*02:01 (human); experiment: UV peptide exchange ELISA
T1 construct: monomers captured on streptavidin plates; also called MHC class I

- binder: "ALLDQQGSRWTL"
  peptide exchange yield: "50 to 75%"
- binder: "KITDTLIHL"
  peptide exchange yield: "50 to 75%"
- binder: "GLLPTPITQQASL"
  peptide exchange yield: "50 to 75%"
- binder: "RMIEYFIDV"
  peptide exchange yield: "50 to 75%"
- binder: "YLASDEITTV"
  peptide exchange yield: "50 to 75%"
- binder: "IMLKGDNITL"
  peptide exchange yield: "50 to 75%"
- binder: "SLMEDQVLQL"
  peptide exchange yield: "50 to 75%"
- binder: "SLLKVLPAL"
  peptide exchange yield: "50 to 75%"
- binder: "LLMENAERV"
  peptide exchange yield: "20 to 50%"
- binder: "SLLELLHIYV"
  peptide exchange yield: "50 to 75%"
- binder: "VIADGGIQNV"
  peptide exchange yield: "20 to 50%"
- binder: "SLLEQGLVEA"
  peptide exchange yield: "20 to 50%"
- binder: "TLYGLSVLL"
  peptide exchange yield: "50 to 75%"
- binder: "YHIDEEVGF"
  peptide exchange yield: "10 to 20%"
- binder: "VLMDRLPSLL"
  peptide exchange yield: "≥ 75%"
- binder: "FLVDTPLARA"
  peptide exchange yield: "≥ 75%"
- binder: "FMEGAIIYV"
  peptide exchange yield: "50 to 75%"
- binder: "ILRESTEEL"
  peptide exchange yield: "50 to 75%"
- binder: "ALFDAQAQV"
  peptide exchange yield: "50 to 75%"
- binder: "KTINKVPTV"
  peptide exchange yield: "50 to 75%"
- binder: "YLQELIFSV"
  peptide exchange yield: "50 to 75%"
- binder: "SLSELEALM"
  peptide exchange yield: "50 to 75%"
- binder: "RVANLHFPSV"
  peptide exchange yield: "50 to 75%"
- binder: "QLINHLHAV"
  peptide exchange yield: "50 to 75%"

// provenance: patent US20170037110A1
